Source listed as the supplement of paper PMC4862054.

- Tested on: BT-474
- ASSAY_PROTOCOL: normalised response (% of control), CellTiter-Glo; higher = more viable cells (100 = DMSO, 0 = benzethonium chloride kill control)
- ASSAY_CONDITIONS: incubation time: 72 h
OBSERVABLE: normalised response (%)
# unit: % | format: bare number

# normalised response (compound: Nc1cc(C(F)(F)F)c(-c2cc(N3CCOCC3)nc(N3CCOCC3)n2)cn1 [Buparlisib] (10 nM) ) is 97.3

For COCC[n+]1c2c(n(Cc3cnccn3)c1C)C(=O)c1ccccc1C2=O [YM155] (10 nM) the compound record lists normalised response as 25.6

Record summary for Cc1ccc(NC(=O)c2ccc(CN3CCN(C)CC3)cc2)cc1Nc1nc(-c2cccnc2)cs1 [Masitinib] (1 nM) : reported normalised response = 96.4

For O=C(Nc1cccnc1)N1CCC(Cc2cccc(Oc3ccc(C(F)(F)F)cn3)c2)CC1 [PF-3845] (10 nM) the compound record lists normalised response as 110

Looking up COC(=O)c1ccc2c(c1)NC(=O)/C2=C(\Nc1ccc(N(C)C(=O)CN2CCN(C)CC2)cc1)c1ccccc1 [Nintedanib] (1000 nM) , I found its normalised response recorded as 101

Entry C=C1C[C@@H]2[C@H](CC[C@]3(C)C(=O)CC[C@@H]23)[C@@]2(C)C=CC(=O)C=C12 [Exemestane] (10 nM) — recorded normalised response = 21

Sample Cc1cc(Nc2cc(CN3CCOCC3)c3nc(C)c(Cc4ccc(Cl)cc4F)n3n2)n[nH]1 [Gandotinib] (1 nM) ; normalised response observed: 108

Notebook: O=P1(N(CCCl)CCCl)NCCCO1 (centres undefined) [Cyclophosphamide] (4000 nM) , normalised response read as 93.1

normalised response reported for this compound COCC1(CO)C(=O)C2CCN1CC2 (centres undefined) [Prima-1 Met] (1 nM) : 102

# normalised response (compound: CO[C@H]1C[C@@H]2CC[C@@H](C)[C@@](O)(O2)C(=O)C(=O)N2CCCC[C@H]2C(=O)O[C@H]([C@H](C)C[C@@H]2CC[C@@H](OP(C)(C)=O)[C@H](OC)C2)CC(=O)[C@H](C)/C=C(\C)[C@@H](O)[C@@H](OC)C(=O)[C@H](C)C[C@H](C)/C=C/C=C/C=C/1C [Ridaforolimus] (0.01 nM) ) is 107

Field normalised response (entry S=P(N1CC1)(N1CC1)N1CC1 [Thio-TEPA] (50 nM) ) reads 97

compound CCc1c2c(nc3ccc(OC(=O)N4CCC(N5CCCCC5)CC4)cc13)-c1cc3c(c(=O)n1C2)COC(=O)[C@]3(O)CC [Irinotecan] (1000 nM) , normalised response observed: 91

Reported normalised response ( O=C(/C=C/c1cccc(S(=O)(=O)Nc2ccccc2)c1)NO [Belinostat] (10 nM) ) = 98.2

The recorded normalised response for CN(C)c1nc(N(C)C)nc(N(C)C)n1 [Altretamine] (1000 nM) is 101

// O=C(/C=C/c1cccc(S(=O)(=O)Nc2ccccc2)c1)NO [Belinostat] (1 nM) : normalised response value = 91

// field: normalised response; key: NC(=O)c1ccc(I)c([N+](=O)[O-])c1 [Iniparib] (1 nM) ; value = 83.2

Reported normalised response ( CN(C)CCOc1ccc(/C(=C(/CCCl)c2ccccc2)c2ccccc2)cc1 [Toremifene] (1 nM) ) = 102

compound CNC(=O)c1ccc(N2C(=S)N(c3ccc(C#N)c(C(F)(F)F)c3)C(=O)C2(C)C)cc1F [Enzalutamide] (1 nM) , normalised response observed: 97.4

Measured normalised response, O=P1(N(CCCl)CCCl)NCCCO1 (centres undefined) [Cyclophosphamide] (40 nM) : 100

What the record says about N#Cc1ccc(COC[C@H]2O[C@@H](n3c(NCc4ccc(Cl)c(Cl)c4)nc4c(N)ncnc43)[C@H](O)[C@@H]2O)cc1 (1 nM) : normalised response is 109

Reported normalised response ( Cc1[nH]c2ccccc2c1CCNCc1ccc(/C=C/C(=O)NO)cc1 [Panobinostat] (100 nM) ) = 13.4

// recorded normalised response for COc1cc(O)c2c(c1)/C=C/C[C@H](O)[C@H](O)C(=O)/C=C\C[C@H](C)OC2=O [(5Z)-7-Oxozeaenol] (1 nM) : 97.9

Per the record, COCC1(CO)C(=O)C2CCN1CC2 (centres undefined) [Prima-1 Met] (1000 nM) has normalised response of 102

Reported normalised response ( COCC[n+]1c2c(n(Cc3cnccn3)c1C)C(=O)c1ccccc1C2=O [YM155] (1000 nM) ) = 0.29

Please fill in: normalised response reported for Oc1ccc2c(c1)CC[C@H](c1ccccc1)[C@@H]2c1ccc(OCCN2CCCC2)cc1 [Lasofoxifene] (100 nM) = 104

The compound listed as CNC(=O)c1cccc(-c2ccc3c(N4CCOC[C@@H]4C)nc(N4CCOC[C@@H]4C)nc3n2)c1 [AZD2014] (1 nM) shows normalised response equal to 97.5

O=C(Nc1ccncc1)C(=O)c1cn(Cc2ccc(Cl)cc2)c2ccccc12 [Indibulin] (10 nM) has a reported normalised response of 112

Form field normalised response, entry Nc1cc(C(F)(F)F)c(-c2cc(N3CCOCC3)nc(N3CCOCC3)n2)cn1 [Buparlisib] (1000 nM) : 99.8

For record Cc1ccc(NC(=O)c2ccc(CN3CCN(C)CC3)cc2)cc1Nc1nc(-c2cccnc2)cs1 [Masitinib] (1000 nM) the listed normalised response is 104

---

- Tested on: Hs578T
- ASSAY_PROTOCOL: drug sensitivity score (DSS), CellTiter-Glo (DSS (AUC-based score)); higher = stronger drug effect (viability inhibition or cytotoxicity); extreme values may be limits of the assay
- ASSAY_CONDITIONS: incubation time: 72 h
Task for the reader: assign each of the following molecules its reported drug sensitivity score.
// response body must contain only the number

In plain terms, O=P1(N(CCCl)CCCl)NCCCO1 (stereo unspecified) [Cyclophosphamide] has a documented drug sensitivity score of 0

Per the records, this molecule ( `CN(C)c1nc(N(C)C)nc(N(C)C)n1` ) has drug sensitivity score equal to 0

Briefly, drug sensitivity score measured for CNC(=O)c1ccc(N2C(=S)N(c3ccc(C#N)c(C(F)(F)F)c3)C(=O)C2(C)C)cc1F [Enzalutamide] : 0

// drug sensitivity score value for `CNC(=O)c1cccc(-c2ccc3c(N4CCOC[C@@H]4C)nc(N4CCOC[C@@H]4C)nc3n2)c1` : 11.4

Entry `O=C(/C=C/c1cccc(S(=O)(=O)Nc2ccccc2)c1)NO` — recorded drug sensitivity score = 11

Kindly note the recorded drug sensitivity score for `NC(=O)c1ccc(I)c([N+](=O)[O-])c1` , which is 0

---

- Test system: CAL-51
- ASSAY_PROTOCOL: normalised viability (% of control), CellTiter-Blue; higher = more viable cells (about 100 = DMSO control)
- ASSAY_CONDITIONS: incubation time: 72 h
OBSERVABLE: normalised viability (%)
Number only, in %; omit the unit.

# normalised viability (compound: COC(=O)c1ccc2c(c1)NC(=O)/C2=C(\Nc1ccc(N(C)C(=O)CN2CCN(C)CC2)cc1)c1ccccc1 [BIBF 1120] (10000 nM) ) is 42.3

get_value(item= S=P(N1CC1)(N1CC1)N1CC1 [Thio-TEPA] (100000 nM) , readout=normalised viability) returns 99.7

Record CN(C)c1nc(N(C)C)nc(N(C)C)n1 [Altretamine] (10000 nM) . Reported normalised viability: 72.6

Query COCC[n+]1c2c(n(Cc3cnccn3)c1C)C(=O)c1ccccc1C2=O [YM155] (10000 nM) yields normalised viability of 1.83

Sure, the documented normalised viability for CNC(=O)c1cc(Oc2ccc(NC(=O)Nc3ccc(Cl)c(C(F)(F)F)c3)c(F)c2)ccn1 [Regorafenib] (10000 nM) is 48.2

---

Assignment: determine reported EC50, CellTiter-Glo for the given molecules.
- System: HCC1937
- ASSAY_CONDITIONS: 72 h
Quick note: give the figure in µM, leave out the unit.

Item: `COC(=O)c1ccc2c(c1)NC(=O)/C2=C(\Nc1ccc(N(C)C(=O)CN2CCN(C)CC2)cc1)c1ccccc1` | EC50, CellTiter-Glo: 4.83

EC50, CellTiter-Glo reported for this molecule `COCC[n+]1c2c(n(Cc3cnccn3)c1C)C(=O)c1ccccc1C2=O` : 0.0112

Value of EC50, CellTiter-Glo reported for the molecule `COc1cc(O)c2c(c1)/C=C/C[C@H](O)[C@H](O)C(=O)/C=C\C[C@H](C)OC2=O` is 4.06

The molecule listed as `Cc1cc(Nc2cc(CN3CCOCC3)c3nc(C)c(Cc4ccc(Cl)cc4F)n3n2)n[nH]1` has a reported EC50, CellTiter-Glo of 2.53

---

- System: HCC1143
- ASSAY_PROTOCOL: normalised response (% of control), CellTox Green; higher = less cell death (100 = DMSO, 0 = benzethonium chloride kill control)
- ASSAY_CONDITIONS: incubation time: 72 h
OBSERVABLE: normalised response (%)
Respond numerically; units are % and should not be typed.

compound CCc1c2c(nc3ccc(OC(=O)N4CCC(N5CCCCC5)CC4)cc13)-c1cc3c(c(=O)n1C2)COC(=O)[C@]3(O)CC [Irinotecan] (1000 nM) , normalised response observed: 96.6

normalised response measured on CNC(=O)c1cccc(-c2ccc3c(N4CCOC[C@@H]4C)nc(N4CCOC[C@@H]4C)nc3n2)c1 [AZD2014] (10000 nM) = 110

The measured normalised response associated with CCn1c(-c2nonc2N)nc2cnc(Oc3cccc(NC(=O)c4ccc(OCCN5CCOCC5)cc4)c3)cc21 (100 nM) reads 101

// field: normalised response; key: O=C(Nc1cccnc1)N1CCC(Cc2cccc(Oc3ccc(C(F)(F)F)cn3)c2)CC1 [PF-3845] (10000 nM) ; value = 126

Value of normalised response reported for the compound NC(=O)c1ccc(I)c([N+](=O)[O-])c1 [Iniparib] (100 nM) is 70.8
